test: folding stability dG unfold (combined trypsin and chymotrypsin); higher = more stable
Quick reference: folding stability dG unfold of the listed items.
Numbers only here, please. The scale is kcal/mol.

Illustrative cases are given below, each with its answer.
                                   seq_text  reported_value
0  SAGGSAGGSADGWVFLVGADVEVEPVPASLLNVPRSVPGEENPYVVKLKEVSFLLVPAKELSAGGSAGGSAG [r3_488_TrMRF]           0.185
1  SAGGSAGGSASWITITGLLPGGRLVTTRYDPSTGSVSTETTPIPPVPAFPLGPENLALNFLLSAGGSAGGSA [r18_236_JUSTAS]           0.746
2  SAGGWEIVGSITIEHPNRPIIFPVFRDPEEGNVWVSIYRMDPENGKWQPIGVVPFPKGDAEDALDDISAGGS [r8_423_TrROS]            1.53
3  SIIIPPKESAEEVLNEIKELLPPGRKYKITVFNPENGRMHEADFDPKKGNIEVEPHPFPNGPPFLMIERKSA [r9_1059_TrROS]           -0.42
4  SAGKFKITNISPMEERKPEDDKWEEQPYIMIRMRWKDPQKALDEIKEEFGYPVNIQRDPDDGWATIMIPSAG [r5_907_TrROS]           0.248

Qu. Endpoint output: folding stability dG unfold of SAGGLDAVLAELAKKPPGVTVELPVELPDGSRVVLTATWPAETSSPVITVKYYDPNRPEAVEEETFTVTSAG [r5_35_JUSTAS] . Value?
Ans. 1.46

Qu. Endpoint output: folding stability dG unfold of SAGGSAGGSAGGMAVVVDSPEEAEEVIEELERSFPALGAKVVVPRVQVGDKLVLPLGLELSAGGSAGGSAGG [r7_588_TrMRF] . Value?
Ans. -0.501

====

assay: folding stability dG unfold from trypsin proteolysis; higher = more stable
The threshold is inclusive: folding stability dG unfold of exactly 3 kcal/mol counts as yes (1); values below receive no (0).

See these solved cases before continuing.
>>> df
                                   seq_text      cat
0  SAGGSASMARVEAIAEEIAPRLKAEGRPIARIEVTATRLPDGTVVVPITLTTPDGTPVYTFEVVVESAGGSA [r15_232_JUSTAS]   no (0)
1  SAGIKIKDISRDPNGYVEVTIVYPPGKSIKEIIELIRKLFGFKIEKVEIYPSPNGVYITYRFRIPEGAISAG [r5_774_TrROS]  yes (1)
2  SAGGSAGGSAGTIVITQSPDGTWRAYYEDGTAEEFDSIDDLKKALEEHYPDAKTVIFKPASAGGSAGGSAGG [r11_806_TrMRF]  yes (1)

Now take the following sequence into account.
Qu. # check: folding stability dG unfold of SAGGGPPAKPVYLTVTVTTEDPVETAKKVEEEVKKLFPDAEILKVEVKKNPETNLYTVTVYVKKLVKSAGGS [r8_120_TrMRF] is greater than or equal to 3 kcal/mol
Ans. no (0)

====

Quick reference: folding stability dG unfold of the listed items.
test: folding stability dG unfold from trypsin proteolysis; higher = more stable
Numbers only here, please. The scale is kcal/mol.

>>> print(df.to_string())
                                   seq_text                  result_type  endpoint_unit  reported_value
0  SAGGSAGGSATVTVTETNEDGEETTTEVEVFEVKPPPAPVLKVEAVIDPETNELVDVKVELFASAGGSAGGS [r12_539_TrROS_Hall]  folding stability dG unfold       kcal/mol            1.36
1  SAGGMPVPVLIVVPEDKIEEIIKKIREETDEDVEIKAFKLPDGRVLLLITFNDPQLAEDFLKKFGFGSAGGS [r16_172_TrMRF]  folding stability dG unfold       kcal/mol            4.27
2  SAGGMTLTLIVPSKEEAERLAEALRALLPPGAKLEITVEEVTLKEDLPPDLPEVKEKKYLVVTIRLDSAGGS [r16_795_TrROS_Hall]  folding stability dG unfold       kcal/mol            3.03

Qu. Endpoint output: folding stability dG unfold of SAGMKSLTITETVTDPNSDNPITIITDPVTGKVIKLYPDGTATVYDPNNPNKSTTYKMSPEEVIEKMSSSAG [r5_491_JUSTAS] . Value?
Ans. 0.0921

Qu. Endpoint output: folding stability dG unfold of SAGGMTLTLVLEANPPEAVEVAVARLLRELGFPDELKIEIDPVGDDKGRIIYPVTIEVNVPELAEKASAGGS [r8_85_TrMRF] . Value?
Ans. 2.19

Qu. Endpoint output: folding stability dG unfold of SAGMVEIVHDPAGYYTVNVTLTKEGKPTSRTIRVPPELSPEEVKALVEELAKEEGVDDVEVTVIPLPESAGG [r19_31_JUSTAS] . Value?
Ans. 1.1

Qu. Endpoint output: folding stability dG unfold of SAGGSAGGSGKWMTAKELLKEFKPGKTIMIRMPPGTEIPPNIKPKGTFPGNGWMMIKIPPNDISAGGSAGGS [r12_356_TrROS] . Value?
Ans. -0.2
